- TEST_TARGET: Vitamin D3 receptor (Sus scrofa) (UniProt A3RGC1)
- Sequence (A3RGC1 whole entry): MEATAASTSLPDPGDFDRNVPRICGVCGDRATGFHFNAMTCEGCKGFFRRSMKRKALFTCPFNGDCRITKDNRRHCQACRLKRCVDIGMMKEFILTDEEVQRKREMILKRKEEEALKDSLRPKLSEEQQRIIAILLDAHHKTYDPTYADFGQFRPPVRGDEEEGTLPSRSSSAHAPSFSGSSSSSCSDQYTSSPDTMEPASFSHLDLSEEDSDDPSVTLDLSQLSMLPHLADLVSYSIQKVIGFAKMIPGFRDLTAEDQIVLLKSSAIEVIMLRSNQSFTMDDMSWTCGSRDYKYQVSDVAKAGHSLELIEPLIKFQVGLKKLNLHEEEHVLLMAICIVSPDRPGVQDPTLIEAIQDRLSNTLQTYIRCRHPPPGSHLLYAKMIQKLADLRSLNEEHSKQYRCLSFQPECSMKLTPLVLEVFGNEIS
- TEST_NAME: Inhibition of [3H]1-alpha,25-dihydroxy-vitamin D3 binding to porcine intestinal mucosal vitamin D receptor
OBSERVATION_TYPE: Receptor binding
Field format: numeric only.

Some solved cases for reference:
{"COMPOUND": "C=C1/C(=C\\C=C2/CCC[C@]3(C)[C@@H]([C@H](C)CC[C@@H](O)[C@@]4(C)CO4)CC[C@@H]23)C[C@@H](O)C[C@@H]1O", "OBSERVATION_TYPE": "Receptor binding", "RECORDED_MEASUREMENT": 20}
{"COMPOUND": "C=C1/C(=C\\C=C2/CCC[C@]3(C)[C@@H]([C@H](C)CC[C@H](O)[C@]4(C)CO4)CC[C@@H]23)C[C@@H](O)C[C@@H]1O", "OBSERVATION_TYPE": "Receptor binding", "RECORDED_MEASUREMENT": 5}
{"COMPOUND": "C=C1/C(=C\\C=C2/CCC[C@]3(C)[C@@H]([C@H](C)CCCC4(C)CO4)CC[C@@H]23)C[C@@H](O)C[C@@H]1O (some centres not stated)", "OBSERVATION_TYPE": "Receptor binding", "RECORDED_MEASUREMENT": 27}
{"COMPOUND": "C=C1/C(=C\\C=C2/CCC[C@]3(C)[C@@H]([C@H](C)/C=C/[C@@H](O)[C@@]4(C)CO4)CC[C@@H]23)C[C@@H](O)C[C@@H]1O", "OBSERVATION_TYPE": "Receptor binding", "RECORDED_MEASUREMENT": 8}
{"COMPOUND": "C=C1/C(=C\\C=C2/CCC[C@]3(C)[C@@H]([C@H](C)CC[C@@H](O)[C@]4(C)CO4)CC[C@@H]23)C[C@@H](O)C[C@@H]1O", "OBSERVATION_TYPE": "Receptor binding", "RECORDED_MEASUREMENT": 9}

State the recorded Receptor binding for this entry: C=C1/C(=C\C=C2/CCC[C@]3(C)[C@@H]([C@H](C)/C=C/[C@H](O)[C@]4(C)CO4)CC[C@@H]23)C[C@@H](O)C[C@@H]1O
8

// repeat for C=C1/C(=C\C=C2/CCC[C@]3(C)[C@@H]([C@H](C)CC[C@H](O)[C@@]4(C)CO4)CC[C@@H]23)C[C@@H](O)C[C@@H]1O and report
1
